Kindly state Luciferase activation plate bound 33 nM IgG, FOC for each of the entries shown.
target: human TREM2/DAP12 fusion protein (human, UniProt O43914 41-113, limits assumed); test: cell-based or functional assay
Sequence (O43914 other isoform, or with tags, fused parts or gaps limits assumed): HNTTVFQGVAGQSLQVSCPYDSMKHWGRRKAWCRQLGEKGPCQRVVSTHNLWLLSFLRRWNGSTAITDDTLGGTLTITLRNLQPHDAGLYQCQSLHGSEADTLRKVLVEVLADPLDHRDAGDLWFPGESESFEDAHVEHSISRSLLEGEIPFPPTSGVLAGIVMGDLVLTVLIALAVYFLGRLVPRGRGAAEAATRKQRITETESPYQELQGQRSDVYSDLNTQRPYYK
Answers are plain numbers, in FOC.

Example entries and their recorded answers appear below.
Kindly note the recorded Luciferase activation plate bound 33 nM IgG, FOC for AL2p-25 (antibody, V domains shown, Fab and IgG formats under one id) VH: QVQLVQSGAEVKKPGSSVKVSCKASGYAFSSHWMNWVRQAPGQGLEWMGRIYPGGGDTNYAQKFRGRVTITADESTSTAYMELSSLRSEDTAVYYCARLLRNQPGESYAMDYWGQGTLVTVSS VL: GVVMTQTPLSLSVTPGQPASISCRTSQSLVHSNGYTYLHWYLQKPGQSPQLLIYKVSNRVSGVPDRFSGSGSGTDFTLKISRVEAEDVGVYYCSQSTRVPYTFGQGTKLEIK , which is 22.3

Luciferase activation plate bound 33 nM IgG, FOC reported for this binder AL2p-17 (antibody, V domains shown, Fab and IgG formats under one id) VH: QVQLVQSGAEVKKPGSSVKVSCKASGYAFSSHWMNWVRQAPGQGLEWMGRIYPGDGDTNYAQKRQGRVTITADESTSTAYMELSSLRSEDTAVYYCARLLRNQPGESYAMDYWGQGTLVTVSS VL: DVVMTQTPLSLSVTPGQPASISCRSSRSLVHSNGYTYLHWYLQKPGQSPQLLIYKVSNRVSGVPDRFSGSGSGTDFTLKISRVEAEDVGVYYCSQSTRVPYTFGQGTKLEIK : 23.8

Sure, the documented Luciferase activation plate bound 33 nM IgG, FOC for AL2p-18 (antibody, V domains shown, Fab and IgG formats under one id) VH: QVQLVQSGAEVKKPGSSVKVSCKASGYAFSSHWMNWVRQAPGQGLEWMGRIYPGDGDTNYAQKWQGRVTITADESTSTAYMELSSLRSEDTAVYYCARLLRNQPGSSYAMDYWGQGTLVTVSS VL: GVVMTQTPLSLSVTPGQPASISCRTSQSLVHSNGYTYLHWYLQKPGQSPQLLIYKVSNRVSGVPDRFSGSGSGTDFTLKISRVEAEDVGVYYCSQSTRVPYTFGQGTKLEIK is 8.46

Lab note: AL2p-26 (antibody, V domains shown, Fab and IgG formats under one id) VH: QVQLVQSGAEVKKPGSSVKVSCKASGYAFSSHWMNWVRQAPGQGLEWMGRIYPGGGDTNYAQKRQGRVTITADESTSTAYMELSSLRSEDTAVYYCARLLRNQPGESYAMDYWGQGTLVTVSS VL: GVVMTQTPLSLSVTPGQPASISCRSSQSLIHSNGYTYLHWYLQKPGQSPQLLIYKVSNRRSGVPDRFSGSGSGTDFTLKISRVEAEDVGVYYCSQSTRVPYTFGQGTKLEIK gave Luciferase activation plate bound 33 nM IgG, FOC of 25.9

Note: attention shifts to another entry.
Summary for this binder, AL2p-35 (antibody, V domains shown, Fab and IgG formats under one id) VH: QVQLVQSGAEVKKPGASVKVSCKASGYAFWSSWMNWVRQAPGQRLEWIGRIYPGDGDTNYAQKFQGRVTITADTSASTAYMELSSLRSEDTAVYYCARLLRNQPGESYAHDYWGQGTLVTVSS VL: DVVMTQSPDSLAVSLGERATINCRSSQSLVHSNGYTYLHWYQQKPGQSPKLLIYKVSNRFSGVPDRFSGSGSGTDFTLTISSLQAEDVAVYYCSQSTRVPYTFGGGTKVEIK : Luciferase activation plate bound 33 nM IgG, FOC is 5.15
